- targetOrTestSystem: Myoglobin (Horse Skeleton) (Equus caballus)
- Construct: Myoglobin (Horse Skeleton, Sigma) was made into a stock solution (10 mg/ml); purchased Sigma; host or cells: horse skeletal muscle ('Horse Skeleton' [sic])
- Sequence (P68082 whole entry): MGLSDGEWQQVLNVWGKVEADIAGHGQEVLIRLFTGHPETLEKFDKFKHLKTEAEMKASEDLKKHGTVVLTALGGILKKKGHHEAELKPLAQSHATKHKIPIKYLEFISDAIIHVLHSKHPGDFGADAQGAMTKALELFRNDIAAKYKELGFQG
- protocolSummary: Inhibition of myoglobin thermal aggregation at 65° C.
- Assay type: physicochemical
- conditionParameters: pH 9.0, 4 days, one cell for all [X] of the excipient
parameter: Formation of fibrillation precipitates (PPT)

# molecule, endpointResult
records = [
    ("O=C(O)C(=O)c1ccccc1", "Precipitate"),
    ("O=CC(=O)O", "Precipitate"),
    ("O=Cc1cc(C(=O)O)ccc1O [3-Formyl-4-hydroxylbenzoic Acid]", "Precipitate"),
    ("O=Cc1ccc(S(=O)(=O)O)cc1S(=O)(=O)O", "Clear"),
]
